// provenance: patent US20020099070A1

Test system: primary cultured guinea-pig urinary bladder (GPB) cells
Test: Membrane hyperpolarization (MHP) assay, DiBAC(4)3 / FLIPR
Type: cell-based
Conditions: maximal steady-state hyperpolarization, normalized to 10 μM P1075 = 100%
Procedure: Compounds were evaluated for potassium channel opening activity using primary cultured guinea-pig urinary bladder (GPB) cells. […] Functional activity at potassium channels was measured by evaluating changes in membrane potential using the bis-oxonol dye DiBAC(4)3 (Molecular Probes) in a 96-well cell-based kinetic assay system, Fluorescent Imaging Plate Reader (FLIPR) (K. S. Schroeder et al., J. Biomed. Screen., v. 1 pp. 75-81 (1996)), hereby incorporated by reference. […]

molecule | Maximal Response (% P1075)
CC1=C(C#N)C(c2ccc(F)c(Br)c2)C2=C(CCNC2=O)N1 (centres unmarked) | 78
CC1=C(C#N)C(c2ccc(Cl)c(Cl)c2)C2=C(CCNC2=O)N1 (centres unmarked) | 97
CC1=C(C#N)C(c2ccc(F)c(Br)c2)c2c(ccnc2Cl)N1 (centres unmarked) [Example 33] | 65
CC1=C(C#N)C(c2ccc(F)c(Br)c2)c2c(ccnc2Cl)N1 (centres unmarked) [Example 34] | 90
CC1=C(C#N)C(c2ccc(F)c(Br)c2)c2c(cc[nH]c2=O)N1 (centres unmarked) | 102

---

system: Landrace pig bladder strips; test: Functional potassium channel opening activity in isolated bladder strips (field-stimulated twitch); conditions: Sus scrofa, negative logarithm of ED50; read-out: pD2 (converted)
// reported log10 of EC50 per item
outcome_measure: log10 of EC50 (log10 of the value in nM)

molecule | log10 of EC50
COc1nccc2c1C(c1ccc(F)c(Br)c1)C(C#N)=C(C)N2 (centres unmarked) | 3.00
CC1=C(C#N)C(c2ccc(F)c(Br)c2)c2c(ccn(C)c2=O)N1 (centres unmarked) | 1.01
CC1=C(C#N)C(c2ccc(F)c(C(F)(F)F)c2)C2=C(CCOC2=O)N1 (centres unmarked) | 2.44
CC1=C(C#N)C(c2ccc(F)c(Br)c2)c2c(cc[nH]c2=S)N1 (centres unmarked) | 2.90
CC1=C(C#N)C(c2ccc(F)c(Br)c2)C2=C(CCNC2=O)N1 (centres unmarked) | 2.84

---

// reported log10 of EC50 per item
tested on: primary cultured guinea-pig urinary bladder (GPB) cells; assay: Membrane hyperpolarization (MHP) assay, DiBAC(4)3 / FLIPR; format: cell-based; settings: Cavia porcellus, membrane hyperpolarization in GPB cells
outcome_measure: log10 of EC50 (log10 of the value in nM)

compound | quantitative_result
CC1=C(C#N)C(c2ccc(Br)c(Br)c2)C2=C(CCNC2=O)N1 (centres unmarked) | 1.36
CC1=C(C#N)C(c2ccc(F)c(Br)c2)c2c(ccnc2Cl)N1 (racemic) | 0.60
CC1=C(C#N)C(c2ccc(Cl)c(C(F)(F)F)c2)C2=C(CCNC2=O)N1 (centres unmarked) | 2.26
CC1=C(C#N)C(c2ccc(Cl)c([N+](=O)[O-])c2)C2=C(CCNC2=O)N1 (centres unmarked) | 2.15
COC(=O)C1=C(C)NC2=C(C(=O)OCC2)C1c1ccc(F)c(Br)c1 (centres unmarked) | 1.28
CC1=C(C#N)C(c2ccc(F)c(Br)c2)C2=C(CCNC2=O)N1 (centres unmarked) [Example 2] | 2.00
COC(=O)C1=C(C)Nc2ccnc(Cl)c2C1c1ccc(F)c(Br)c1 (centres unmarked) | 1.59
CC(=O)C1=C(C)Nc2cc[nH]c(=O)c2C1c1ccc(F)c(Br)c1 (racemic) [Example 18] | 2.87
CC1=C(C#N)C(c2ccc(F)c(C(F)(F)F)c2)C2=C(CCNC2=O)N1 (centres unmarked) | 2.54
CC(=O)C1=C(C)NC2=C(C(=O)NCC2)C1c1ccc(F)c(Br)c1 (centres unmarked) | 4.15
CC1=C(C#N)C(c2cccc([N+](=O)[O-])c2)C2=C(CCNC2=O)N1 (centres unmarked) | 2.79
